molecular target: human CYP11B2 (Homo sapiens, UniProt P19099); experiment: G-402 cellular enzyme assay, human CYP11B2 (aldosterone release, HTRF); settings: G-402 cells expressing human CYP11B2; 1 μM Deoxycorticosterone
Sequence (P19099 25-503): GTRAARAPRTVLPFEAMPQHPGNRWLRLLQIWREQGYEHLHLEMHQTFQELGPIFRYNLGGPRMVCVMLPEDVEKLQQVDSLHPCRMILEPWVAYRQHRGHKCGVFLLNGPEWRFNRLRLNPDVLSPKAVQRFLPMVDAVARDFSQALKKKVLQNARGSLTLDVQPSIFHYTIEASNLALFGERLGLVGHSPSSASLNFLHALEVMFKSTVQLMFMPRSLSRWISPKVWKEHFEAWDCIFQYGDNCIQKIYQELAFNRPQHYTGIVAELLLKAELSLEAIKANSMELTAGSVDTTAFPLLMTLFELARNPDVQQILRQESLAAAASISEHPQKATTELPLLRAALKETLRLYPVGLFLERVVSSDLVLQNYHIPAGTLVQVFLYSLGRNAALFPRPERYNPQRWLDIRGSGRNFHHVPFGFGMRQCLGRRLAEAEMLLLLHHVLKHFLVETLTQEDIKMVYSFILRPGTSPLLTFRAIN
Where a name gives a salt, the structure may show the parent alone.
outcome measure: EC50 (nM)

>  <compound>
CN1C(=O)CCc2cc(-c3cncc(C4=CCN(C(=O)OC(C)(C)C)CC4)c3)ccc21

>  <meas value>
5

$$$$
>  <compound>
Cc1cccnc1C(=O)N(C)Cc1cncc(-c2ccc3c(c2)CCC(=O)N3C)c1

>  <meas value>
3

$$$$
>  <compound>
CN1C(=O)CCc2cc(-c3cncc(CNC(=O)c4nc(Cl)ccc4Cl)c3)ccc21

>  <meas value>
3

$$$$
>  <compound>
O=C1CCc2cc(-c3cncc(CNC(=O)c4ncccc4Cl)c3)cc(Cl)c2N1

>  <meas value>
20

$$$$
>  <compound>
CN1C(=O)CCc2cc(-c3cncc(CNC(=O)c4cnc(Cl)cn4)c3)ccc21

>  <meas value>
3

$$$$
>  <compound>
CN1C(=O)CCc2cc(-c3cncc(C4(N)COC4)c3)ccc21 [Example 69, hydrochloride]

>  <meas value>
411

$$$$

(1) CN1C(=O)CCc2cc(-c3cncc(O[C@H]4CCNC4)c3)ccc21 [Example 60, hydrochloride]
(2) CCS(=O)(=O)NCc1cncc(-c2cc3c(cc2Cl)N(C)C(=O)CC3)c1
Task: Response body: label of entry with the larger EC50; valid values 1 , 2 . API: response body contains the label of the selected item.
Output: 1

(a) CCS(=O)(=O)N1CCC[C@H]1COc1cncc(-c2ccc3c(c2)CCC(=O)N3C)c1
(b) Cc1nn(C)cc1C(=O)NCc1cncc(-c2ccc3c(c2)CCC(=O)N3C)c1
Task: Response body: label of entry with the larger EC50; valid values a , b . API: response body contains the label of the selected item.
Output: a
(a: 18 nM, b: 11 nM)

(P) CCS(=O)(=O)N1CC[C@H]1COc1cncc(-c2ccc3c(c2)CCC(=O)N3C)c1
(Q) CCS(=O)(=O)NCCOc1cncc(-c2cc3c(cc2F)N(C)C(=O)CC3)c1
(R) Cc1noc(C)c1C(=O)NCc1cncc(-c2ccc3c(c2)CCC(=O)N3C)c1
(S) CCS(=O)(=O)NCc1cncc(-c2cc3c4c(c2)CCN4C(=O)CC3)c1
Task: Arrange the 4 entries by EC50 so the values rise. Please list the labels in the order you were asked to rank them.
Output: Q, R, P, S

(P) Cc1noc(C)c1C(=O)NCc1cncc(-c2ccc3c(c2)CCC(=O)N3)c1
(Q) Cc1cccnc1C(=O)NCc1cncc(-c2ccc3c(c2)CCC(=O)N3C)c1
(R) COc1ccc(C(=O)NCc2cncc(-c3ccc4c(c3)CCC(=O)N4C)c2)nn1
(S) Cc1noc(C)c1C(=O)NCc1cncc(-c2cc3c(cc2F)N(C)C(=O)CC3)c1C
(T) Cc1cc(C(=O)NCc2cncc(-c3ccc4c(c3)CCC(=O)N4C)c2)c(Cl)nn1
Task: Rank the 5 compounds: largest EC50 first, smallest last. Please list the labels in the order you were asked to rank them.
Output: P, T, S, R, Q
(P: 856 nM, T: 86 nM, S: 13 nM, R: 7 nM, Q: 1 nM)

(1) CN(Cc1cncc(-c2ccc3c(c2)CCC(=O)N3C)c1)C(=O)c1cnn(C)c1
(2) CN1C(=O)CCc2cc(-c3cncc(O[C@@H]4CCNC4)c3)ccc21 [Example 68, hydrochloride]
(3) CCC(=O)NC(C)c1cncc(-c2cc3c(cc2F)N(C)C(=O)CC3)c1 (racemic)
(4) CC(C)S(=O)(=O)NCc1cncc(-c2ccc3c(c2)CCC(=O)N3C)c1
(5) CCS(=O)(=O)N[C@H]1CC[C@H](Oc2cncc(-c3ccc4c(c3)CCC(=O)N4C)c2)CC1
Task: Rank the 5 compounds: largest EC50 first, smallest last. Please list the labels in the order you were asked to rank them.
Output: 2, 4, 3, 1, 5

(1) CN1C(=O)CCc2cc(-c3cncc(CNC(=O)C(C)(C)O)c3)ccc21
(2) CN1C(=O)CCc2cc(-c3cncc(OC4CN(C(=O)OC(C)(C)C)C4)c3)ccc21
Task: Could you tell me which of 1 and 2 has the lower EC50 reading? API: response body contains the label of the selected item.
Output: 2

(A) CN1C(=O)CCc2cc(-c3cncc(OCCN)c3)c(F)cc21 [Example 238, hydrochloride]
(B) CN1C(=O)CCc2cc(-c3cncc(N4CCC[C@@H]4CO)c3)ccc21
(C) CCC(=O)NC1(c2cncc(-c3ccc4c(c3)CCC(=O)N4C)c2)COC1
Task: Arrange the 3 entries by EC50 so the values rise. Please list the labels in the order you were asked to rank them.
Output: A, B, C

(P) Cn1c(=O)ccc2cc(-c3cncc(C4(N)CC4)c3)ccc21
(Q) CCC(=O)N1CC[C@H]1COc1cncc(-c2ccc3c(c2)CCC(=O)N3C)c1
(R) CCC(=O)NC(C)c1cncc(-c2ccc3c(c2)CCC(=O)N3C)c1C (single isomer, unassigned)
Task: Rank the 3 compounds: largest EC50 first, smallest last. Please list the labels in the order you were asked to rank them.
Output: P, R, Q

* * *

biological target: human CYP11B1 (Homo sapiens, UniProt P15538); experiment: G-402 cellular enzyme assay, human CYP11B1 (cortisol release, HTRF); settings: G-402 cells expressing human CYP11B1; 1 μM Deoxycortisol
Sequence (P15538 25-503): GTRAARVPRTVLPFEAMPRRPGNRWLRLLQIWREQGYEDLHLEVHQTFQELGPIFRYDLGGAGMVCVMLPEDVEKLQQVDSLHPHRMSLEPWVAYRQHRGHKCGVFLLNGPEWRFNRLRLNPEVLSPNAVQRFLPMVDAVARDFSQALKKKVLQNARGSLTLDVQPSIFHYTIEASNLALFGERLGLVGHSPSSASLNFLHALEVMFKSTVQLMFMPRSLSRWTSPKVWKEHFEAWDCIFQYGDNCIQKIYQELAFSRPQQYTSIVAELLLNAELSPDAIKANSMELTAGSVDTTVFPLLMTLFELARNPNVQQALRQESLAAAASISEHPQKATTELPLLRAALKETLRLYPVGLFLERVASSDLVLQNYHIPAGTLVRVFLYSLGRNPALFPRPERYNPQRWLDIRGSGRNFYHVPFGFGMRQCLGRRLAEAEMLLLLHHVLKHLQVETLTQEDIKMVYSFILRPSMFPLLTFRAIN
pEC50: −log10 of the molar value. Where a name gives a salt, the structure may show the parent alone.
outcome measure: pEC50

>  <molecule>
CCC(=O)NCCOc1cncc(-c2ccc3c(c2)CCC(=O)N3C)c1 [Example 43]

>  <assayed target>
human CYP11B1 (Homo sapiens, UniProt P15538)

>  <meas value>
5.81

$$$$
>  <molecule>
CCS(=O)(=O)NCc1cncc(-c2cc(F)c3c(c2)CCC(=O)N3C)c1 [Example 208]

>  <assayed target>
human CYP11B1 (Homo sapiens, UniProt P15538)

>  <meas value>
5.38

$$$$
>  <molecule>
CN1C(=O)CCc2cc(-c3cncc(O[C@H]4CC[C@H](N)CC4)c3)ccc21 [Example 71, hydrochloride]

>  <assayed target>
human CYP11B1 (Homo sapiens, UniProt P15538)

>  <meas value>
5.60

$$$$

(P) CCN(Cc1cncc(-c2ccc3c(c2)CCC(=O)N3C)c1)S(=O)(=O)CC [Example 181]
(Q) Cc1noc(C)c1C(=O)NC(C)(C)c1cncc(-c2ccc3c(c2)CCC(=O)N3C)c1 [Example 139]
(R) CCS(=O)(=O)N(Cc1cncc(-c2ccc3c(c2)CCC(=O)N3C)c1)C(C)C [Example 184]
(S) CCS(=O)(=O)NC(C)c1cncc(-c2ccc3c(c2)CCC(=O)N3C)c1 (single isomer, unassigned) [Example 173]
Task: Rank the 4 molecules: largest pEC50 first, smallest last. Please list the labels in the order you were asked to rank them.
Output: Q, S, P, R
(Q: 6.34, S: 6.10, P: 5.63, R: 5.01)

* * *

target: human CYP11B2 (Homo sapiens); assay: G-402 cellular enzyme assay, human CYP11B2 (aldosterone release, HTRF); conditions: G-402 cells expressing human CYP11B2; 1 μM Deoxycorticosterone
outcome measure: EC50 (µM)

Study these solved cases before continuing.
>  <molecule>
CCS(=O)(=O)NCc1cncc(-c2ccc3c(c2)C(C)(C)CC(=O)N3C)c1

>  <outcome measure>
EC50

>  <meas value>
4.65

$$$$
>  <molecule>
CCC(=O)NCc1cncc(-c2ccc3c(c2)CCC(=O)N3C)c1Cl

>  <outcome measure>
EC50

>  <meas value>
0.009

$$$$

(a) CN1C(=O)CCc2cc(-c3cncc(OC[C@@H]4CCN4C(=O)C4CC4)c3)ccc21
(b) Cc1cccc(C(=O)NCc2cncc(-c3ccc4c(c3)CCC(=O)N4C)c2)n1
(c) CCS(=O)(=O)N1CC(Oc2cncc(-c3ccc4c(c3)CCC(=O)N4C)c2)C1
Task: Arrange the 3 entries by EC50 so the values rise. Please list the labels in the order you were asked to rank them.
Output: b, c, a
(b: 0.008 µM, c: 0.015 µM, a: 0.043 µM)

(1) Cc1noc(C)c1C(=O)NCc1cncc(-c2ccc3c(c2)CCC(=O)N3C)c1Cl
(2) CN1C(=O)CCc2cc(-c3cncc(CN4CCC[C@H]4CO)c3)ccc21
Task: Response body: label of entry with the larger EC50; valid values 1 , 2 . API: response body contains the label of the selected item.
Output: 2

* * *

Target: human CYP11B2 (Homo sapiens, UniProt P19099)
Experiment: G-402 cellular enzyme assay, human CYP11B2 (aldosterone release, HTRF)
Conditions: G-402 cells expressing human CYP11B2; 1 μM Deoxycorticosterone
Excerpt: Herein we identified the use of the G-402 cell line as a host cell to ectopically express (transiently or stably) enzymes of the CYP11 family. […] Importantly the identified cell line G-402 expresses co-factors (adrenodoxin and adrenodoxin reductase) important for the activity of the CYP11 family and no relevant enzyme activity of the CYP11 family (in comparison to H295R cells) was detected in these cells. […]
pEC50: −log10 of the molar value. Structures can show the parent of a compound that is named as a salt.
outcome measure: pEC50

>  <compound>
O=C(NCc1cncc(-c2cc3c4c(c2)CCN4C(=O)CC3)c1)c1ncccc1Cl [Example 236]

>  <outcome measure>
pEC50

>  <meas value>
8.52

$$$$

(1) Cc1c(CN)cncc1-c1ccc2c(c1)CCC(=O)N2C [Example 222, hydrochloride]
(2) CN(Cc1cncc(-c2ccc3c(c2)CCC(=O)N3C)c1)C(=O)c1ncccc1Cl [Example 196]
(3) CN1C(=O)CCc2cc(-c3cncc(O[C@H]4CC[C@H](NS(C)(=O)=O)CC4)c3)ccc21 [Example 245]
Task: Rank the 3 compounds: largest pEC50 first, smallest last. Please list the labels in the order you were asked to rank them.
Output: 3, 1, 2
(3: 9.00, 1: 8.40, 2: 8.10)
